target: T1, FMDV O/Mya/98 146S antigen (Foot-and-mouth disease virus serotype …, UniProt G8JKC2, strain); experiment: ELISA; details: both partners purified
T1 construct: also called purified virus antigen; copies: + + +
ENDPOINT LABEL: binding result

>>> recorded_result("E10 (antibody, V domains shown) VH: QVQLRESGPSLVKPSQTLSLTCTVSGFSLSSNGVVWVRQAPGKALEWVGCSRGEGSTFYNQALRSRLSITKDNSKSQVSLSVSSVTPEDTATYYCTKVYNGGCGRRGYDAAAYVDAWGQGLLVTVSS VL: QAVLTQPSSVSGSLGQRVSITCSGRSNNIGGNGVGWYQQVPGSGLRTIIYGSSSRPSGVPDRFSGSKSGNTATLTISSLQAEDEADYFCATADYSSGTAVFGSGTTLTVL")
"binds"
>>> recorded_result("B64 (antibody, V domains shown) VH: QVQLRESGPSLVKPSQTLSLTCTVSGFSLSNYDVAWVRQPPGKALECLGGVSISGRTDYNPALKSRLSITKDNSKNQVSLSLSSVTTEDTATYYCAKFFGDYGYDYYGCGYGAGDHYVDAWGQGLLVAVSS VL: QAVLTQPSSVSGSLGQRVSITCSGSSSNVGNGYVSWYQLIPGSAPRTLIYGDTSRASGVPDRFSGSRSGNTATLTISSLQAEDEADYFCASAEGSSSNAGFGSGTTLIVL")
"binds"
>>> recorded_result("B54 (antibody, V domains shown) VH: QVQLRESGPSLVKPSQTLSLTCTVSGFSLSSNAVVRVRQAPGKTLEWLGGICSGGATSFNPALKSRLSITKDNSKSQVSLSVSSVTPEDTATYYCMRVGSCFGCGDRCGYGYPYTYVDVWGQGLLVTVSP VL: QAVLTQPSSVSGSLGQRVSITCSGSSSNVGTGNYVSWFQQIPGSAPRTLIYGATSRASGVPDRFSGSRSGNTATLTISSLQAEDEADYFCASYQIGNTAVFGSGTTLTVL")
"binds"

# credit: paper PMC6908506
